- Measurement target: T1, huCD33-R69 stably expressed on Jurkat cells (human, UniProt P20138 18-364)
- T1 construct: whole, on cells; >200,000 receptors per cell; also called CD33 WT; CD33^ARG69
- T1 sequence (P20138 18-364): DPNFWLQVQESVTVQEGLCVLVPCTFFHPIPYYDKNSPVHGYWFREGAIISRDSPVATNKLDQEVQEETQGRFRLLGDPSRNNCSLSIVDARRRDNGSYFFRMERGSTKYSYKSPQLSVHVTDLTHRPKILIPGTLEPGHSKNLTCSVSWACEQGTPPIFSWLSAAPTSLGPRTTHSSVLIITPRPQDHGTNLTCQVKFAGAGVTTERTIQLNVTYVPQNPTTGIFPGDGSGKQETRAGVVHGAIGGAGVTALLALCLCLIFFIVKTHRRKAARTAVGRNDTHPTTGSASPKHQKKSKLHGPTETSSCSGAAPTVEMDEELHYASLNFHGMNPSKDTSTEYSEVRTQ
- Experiment description: FACS on cells;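 note: fixed Jurkat lines probed with myc-tagged scFv periplasmic extracts, anti-myc PE flow cytometry, PE MFI fold binned − <2, + 2–10, ++ 10–30, +++ >30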
FACS geometric mean fold change over Jurkat parental reference

Field: example entries. Status: answers known.
# Binder, Observed measurement
measured = [
    ("Polypeptide No. 139 (scFv, V domains shown, scFv) VH: QVQLVQSGAEVKKPGASVKVSCKASGYTLSDHDINWVRQAPGQGLEWMGWMNPSTGNTGYAQKFQGRVTMTRDTSTSTVYMELSSLRSEDTAVYYCERDQLRFGAWFDPWGQGTLVTVSS VL: DIQMTQSPSSLSASVGDRVTITCRASQGIRNYLAWYQQKPGKAPKLLIYAASSLQSGVPSRFSGSGSGTDFTLTISSLQPEDFATYYCQQSYSIPLTFGGGTKVEIKR", "> 30 fold"),
    ("Polypeptide No. 105 (scFv, V domains shown, scFv) VH: EVQLLESGGGLVQPGGSLRLSCAASGFTFNNAWMTWVRQAPGKGLEWVAVISYDGSNKYYADSVKGRFTISRDNSKNTLYLQMNSLRAEDTAVYYCARMAVAGKGAFDIWGQGTMVTVSS VL: DIQMTQSPSSLSASVGDRVTITCRASQSIYSWLAWYQQKPGKAPKLLIYAASTLQSGVPSRFSGSGSGTDFTLTISSLQPEDFATYYCQQTYSTPVTFGQGTKVEIKR", "10 to 30 fold"),
    ("Polypeptide No. 120 (scFv, V domains shown, scFv) VH: QVQLVQSGAEVKKPGASVKVSCKASGYTFTTYYMHWVRQAPGQGLEWMGWMNPNSGNTGYAQKFQGRVTMTRDTSTSTVYMELSSLRSEDTAVYYCARGHKVDSGYDPYGMDVWGQGTTVTVSS VL: DIQMTQSPSSLSASVGDRVTITCRASQSIGTYLHWYQQKPGKAPKLLIYAISTLQNGVPSRFSGSGSGTDFTLTISSLQPEDFATYYCQQSYSPPLTFGGGTKVEIKR", "> 30 fold"),
    ("Polypeptide No. 94 (scFv, V domains shown, scFv) VH: QVQLVQSGAEVKKPGASVKVSCKASGYTFTTYDINWVRQAPGQGLEWMGWISGYNGNTGYAQKFQGRVTMTRDTSTSTVYMELSSLRSEDTAVYYCAKDMGYGDYPDAFDIWGQGTMVTVSS VL: DIVMTQSPLSLPVTPGEPASISCRSSQSLLHSNGYNYLDWYLQKPGQSPQLLIYAASTLQSGVPDRFSGSGSGTDFTLKISRVEAEDVGVYYCMQALQIPITFGQGTKVEIKR", "2 to 10 fold"),
]

Next item in the queue.
Lookup: For the binder Polypeptide No. 133 (scFv, V domains shown, scFv) VH: EVQLLESGGGLVQPGGSLRLSCAASGFTFSSSWMHWVRQAPGKGLEWVSAISSSGDATYYADSVKGRFTISRDNSKNTLYLQMNSLRAEDTAVYYCAKFSDGGAGDSDYWGQGTLVTVSS VL: DIQMTQSPSSLSASVGDRVTITCRASQGISSYLAWYQQKPGKAPKLLIYTASSLQSGVPSRFSGSGSGTDFTLTISSLQPEDFATYYCQQYDNLPITFGQGTRLEIKR , report FACS geometric mean fold change over Jurkat parental.
Found: 2 to 10 fold
